# target_desc: Hepatocyte nuclear factor 6 (Homo sapiens)
# assay_remarks: ATG_HNF6_CIS: Attagene CIS-FACTORIAL HepG2 Assay for human Hepatocyte Nuclear Factor 6 (HNF6) (AID 2282952)
# condition_notes: HepG2 Attagene cis-factorial HNF6 reporter transcription; actives raise or lower the signal
Activity calls are given as the source filed them. The calls were made as follows: active = hit-call score of the fitted dose curve at least 0.9, where 1 is the maximum; inactive = score below 0.9.
Labels: active, inactive

INSERT INTO measurements (compound, assigned_category) VALUES
  ('CC(=O)Nc1c(I)c(NC(C)=O)c(I)c(C(=O)O)c1I', 'inactive'),
  ('CCC(C)NC(N)=O (centres undefined)', 'inactive'),
  ('C=CN1CCCCCC1=O', 'inactive'),
  ('OCCc1ccccn1', 'inactive'),
  ('C=CCOCC(CC)(CO)COCC=C', 'inactive'),
  ('O=C(c1ccccc1)c1ccccc1O', 'active'),
  ('C[Si](C)(C)O[Si](C)(C)O[Si](C)(C)C', 'inactive'),
  ('CC1=CCCC(C)(C)C12CCC(C)O2 (centres undefined)', 'inactive'),
  ('CN(C)Cc1cc(C(C)(C)C)c(O)c(C(C)(C)C)c1', 'inactive'),
  ('c1ccc(CNc2ncnc3nc[nH]c23)cc1', 'inactive'),
  ('CCC(C)C1N=C(C)C(C)S1 (centres undefined)', 'inactive'),
  ('c1cc[c]([Bi]([c]2ccccc2)[c]2ccccc2)cc1', 'inactive'),
  ('O=C(CC(C(=O)OC1CCCCC1)S(=O)(=O)O)OC1CCCCC1 (centres undefined)', 'inactive'),
  ('Brc1ccc(Oc2ccc(Br)cc2)cc1', 'inactive');

###

# assay_remarks: BSK_3C_VCAM1: BioMAP Diversity Plus: 3C Assay for Vascular cell adhesion molecule 1 (VCAM1) Biomarker Activity (AID 2282999)
# condition_notes: BioMAP 3C HUVEC, VCAM1 ELISA, cytokine-stimulated; actives raise or lower the signal
Calls of active or inactive are those of the source. How the source made its calls: active means hit-call score of the fitted dose curve at least 0.9, where 1 is the maximum; inactive means score below 0.9.
Labels: 1.0 = active, 0.0 = inactive

INSERT INTO results (compound, assigned_category) VALUES
  ('CN(C)CCC(c1ccc(Cl)cc1)c1ccccn1 (stereo not given)', 0.0),
  ('Cc1cc(-n2nc3ccc(Cl)cc3n2)c(O)c(C(C)(C)C)c1', 0.0),
  ('COc1cc(CNC(=O)CCCC/C=C/C(C)C)ccc1O', 0.0),
  ('CCCCCCCCCCC1CO1 (stereo not given)', 1.0),
  ('COc1ccc(C(=O)c2ccccc2O)c(O)c1', 0.0);

###

# assay_remarks: ATG_Ets_CIS: Attagene CIS-FACTORIAL HepG2 Assay for human Erythroblast Transformation Specific (ETS) (AID 2282941)
# condition_notes: HepG2 ETS cis-reporter transcription, actives raise or lower the signal
# Procedure: ATG_CIS is a cell-based, multiplexed-readout assay that uses HepG2, a human liver cell line, with measurements taken at 24 hours after chemical dosing in a 24-well plate.ATG_Ets_CIS is one of 52 assay component(s) measured or calculated from the ATG_CIS assay. […] This assay endpoint, ATG_Ets_CIS, was analyzed with bidirectional fitting relative to DMSO as the negative control and baseline of activity. […]
The source made the active and inactive calls. Rule for the calls: active = hit-call score of the fitted dose curve at least 0.9, where 1 is the maximum; inactive = score below 0.9.
Labels: active, inactive

INSERT INTO measurements (compound, assigned_category) VALUES
  ('O=C(O)/C=C\C(=O)O', 'inactive'),
  ('Clc1ccccn1', 'inactive'),
  ('CCC(C)C1N=C(C)C(C)S1 (configuration not stated)', 'inactive'),
  ('O=S(=O)(O)c1cccc2ccccc12', 'inactive'),
  ('O=C(O)/C=C/C(=O)O', 'inactive'),
  ('OCCN(CCO)c1cccc(Cl)c1', 'inactive'),
  ('NCc1ccccc1', 'inactive'),
  ('CC(C)=CCOC(=O)c1ccccc1', 'inactive'),
  ('Cc1ccnc(N)c1', 'inactive'),
  ('CCCCCCC1CCCC(=O)O1 (configuration not stated)', 'inactive'),
  ('CNC[C@H](O)[C@@H](O)[C@H](O)[C@H](O)CO', 'inactive'),
  ('O=[N+]([O-])c1ccc2nc[nH]c2c1', 'inactive'),
  ('CCCCCCCCCC/C=C/C1CC(=O)OC1=O (configuration not stated)', 'inactive'),
  ('CN(C)N=Nc1ccccc1', 'inactive'),
  ('CN1CCCC1', 'inactive'),
  ('CN(C)CCC(c1ccc(Cl)cc1)c1ccccn1 (configuration not stated)', 'inactive'),
  ('Nc1nnc(-c2ccc([N+](=O)[O-])o2)o1', 'inactive'),
  ('CCCCCCCCCCCCCCCCCC[N+](C)(C)C', 'active'),
  ('[O-][n+]1ccc(Cl)cc1', 'inactive'),
  ('CCCCCCOC(=O)CCCCCCCC(=O)OCCCCCC', 'inactive'),
  ('CCCCCCC(O)CCCCCCCCCCC(=O)OC (configuration not stated)', 'inactive'),
  ('CCC(=O)OCc1ccc(OC)cc1', 'inactive'),
  ('C/C=C(\C)C(=O)OCC/C=C\CC', 'inactive'),
  ('CC=CC(=O)O', 'inactive'),
  ('CN(C)CCCN1c2ccccc2CCc2ccc(Cl)cc21', 'inactive'),
  ('C=CC(C)(CCC=C(C)C)OC(=O)c1ccccc1 (configuration not stated)', 'inactive'),
  ('O=C(c1ccccc1)c1ccccc1O', 'inactive'),
  ('OCCc1ccccn1', 'inactive'),
  ('N#CCN(CC#N)CCN(CC#N)CC#N', 'inactive'),
  ('c1ccc2c(c1)Oc1ccccc1S2', 'inactive'),
  ('CN(C)Cc1cc(C(C)(C)C)c(O)c(C(C)(C)C)c1', 'inactive'),
  ('CC(=O)CCc1ccccc1', 'inactive');
